Target: Torsin-1A-interacting protein 1 (Homo sapiens) (UniProt Q5JTV8)
Sequence (Q5JTV8 whole entry, looked up): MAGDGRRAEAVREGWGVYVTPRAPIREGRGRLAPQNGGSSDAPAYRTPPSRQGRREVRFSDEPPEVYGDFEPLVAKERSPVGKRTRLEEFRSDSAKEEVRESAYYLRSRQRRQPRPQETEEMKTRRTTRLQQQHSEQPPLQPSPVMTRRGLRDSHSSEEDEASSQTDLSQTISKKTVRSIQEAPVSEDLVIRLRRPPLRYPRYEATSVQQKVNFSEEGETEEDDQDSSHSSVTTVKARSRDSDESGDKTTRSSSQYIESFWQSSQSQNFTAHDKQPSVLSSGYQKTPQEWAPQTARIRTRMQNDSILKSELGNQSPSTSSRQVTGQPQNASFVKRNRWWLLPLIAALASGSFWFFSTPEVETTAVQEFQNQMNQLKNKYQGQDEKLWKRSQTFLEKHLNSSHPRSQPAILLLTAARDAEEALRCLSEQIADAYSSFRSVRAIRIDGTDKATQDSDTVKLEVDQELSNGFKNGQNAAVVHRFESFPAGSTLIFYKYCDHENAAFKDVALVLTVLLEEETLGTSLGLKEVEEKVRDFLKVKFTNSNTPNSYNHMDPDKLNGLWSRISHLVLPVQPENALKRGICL
Assay: LAP1 binders from COS7 cell lysate, primary screen, small-molecule microarray, 635/667 nm fluorescence (AID 1116)
Settings: COS7-hLAP1 lysate binding, 635 nm fluorescence, higher = more signal
MEASURED_PROPERTY: composite z-score

Lookup: Sample CCN1C(=O)[C@H]2[C@H]3[C@H](O)[C@H](O)CC(=NO[C@@H]4O[C@H](CO)[C@@H](O)[C@H](O)[C@H]4O)[C@@H]3CC[C@H]2C1=O — what was its composite z-score?
Found: -0.442

Lookup: Try O=C1[C@H]2[C@H]3[C@H](O)[C@H](O)CC(=NOC[C@@H](O)COCc4ccco4)[C@H]3CC[C@H]2C(=O)N1c1cccc(Oc2ccccc2)c1 next.
Found: 0.103

Lookup: Try CC(C)(C)OC(=O)CC[C@]1(C(N)=O)COC(c2ccc(OCCCO)cc2)=N1 next.
Found: 2.08

---

Experiment: PSAC antagonists in infected red cells, primary screen, cell-based, P. falciparum Indochina, OD700, 18 h (AID 1157)
Details: P. falciparum Indochina infected erythrocytes, osmotic lysis OD700, 18 h; higher = more signal, called active from +8 up or from −8 down
Activity calls are given as the source filed them.
Please go through the items and note down their z-score.

Lookup: Sample CO[C@@H]1COC(=O)CC=C[C@@H](C)COC(=O)[C@H](COCc2ccccc2)NC(=O)CC=C[C@H]1C — what was its z-score?
Found: 0.403 (inactive)

Lookup: Try CCOC(=O)[C@H](Cc1ccccc1)NC(=O)CCC1CC(OC(=O)NCc2ccc3c(c2)OCO3)CC2(CCCC(COC(=O)NCc3cccc(C(F)(F)F)c3)O2)O1 (some centres undefined) next.
Found: -1.37 (inactive)

Lookup: Try [N-]=[N+]=NCc1ccccc1[C@@H]1OC(c2ccc(OCCCO)cc2)=N[C@]1(Cc1ccccc1)C(=O)N1CCOCC1 next.
Found: 1.01 (inactive)

Lookup: Try O=C1O[C@@H](c2ccccc2)[C@@H](c2ccccc2)N2[C@@H](c3ccccc3OCCO)[C@]3(C(=O)Nc4ccc(C#CCCO)cc43)[C@@H](C(=O)O)[C@H]12 next.
Found: -2.06 (inactive)

Lookup: Try Cc1ccc(F)cc1S(=O)(=O)N[C@@H]1CCN(Cc2ccc(CC(C)C)cc2)C1 next.
Found: 0.916 (inactive)

Lookup: Try COc1ccc(COC(=O)NN=C2C[C@@H](O)[C@@H](O)[C@@H]3[C@@H]4C(=O)N(c5ccc(F)cc5F)C(=O)[C@@H]4CC[C@@H]23)cc1 next.
Found: 0.302 (inactive)

Lookup: Try CC(CCC(=O)OC[C@H]1O[C@H](C#Cc2ccccc2)C=C[C@@H]1Oc1ccc(C)cc1)=NOC[C@@H](O)COCc1ccco1 next.
Found: 1.18 (inactive)

Lookup: Try CCCC[C@@H]1C[C@H]1[C@@H](NS(=O)(=O)c1cccc2cccnc12)c1ccc(-c2ccccc2)cc1 next.
Found: 0.764 (inactive)

Lookup: Try CC(C)N1CC=CC23O[C@@H]4C=CCCOC(=O)C4[C@H]2C(=O)N(CCCCCCO)[C@@H]3C1=O (some centres undefined) next.
Found: 0.647 (inactive)

---

Test system: Sam68 (KHDRBS1)
Experiment: Sam68 small-molecule binders, primary screen, biochemical, small-molecule microarray, 635 nm fluorescence (AID 1125);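 further: score merges 667 nm channel intensity with signal to noise over triplicate slides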
Conditions: small-molecule microarray binding, higher = more signal
MEASURED_PROPERTY: composite z-score
Answer as a number with no unit attached.

Lookup: Sample COCCCNC(=O)[C@]1(CCC(=O)OC(C)(C)C)N=C(c2ccc(OCCCO)cc2)O[C@@H]1c1ccccc1N=[N+]=[N-] — what was its composite z-score?
Found: 1.31

Lookup: Try N#Cc1ccc(NN2C(C(O)c3cc(C(F)(F)F)cc(C(F)(F)F)c3)C=CC3C(=O)N(c4ccccc4)C(=O)C32)cc1 (stereo not drawn) next.
Found: 1.33

Lookup: Try CCOC(=O)[C@H](Cc1ccccc1)NC(=O)CCC1CC(OC(=O)NCc2ccc3c(c2)OCO3)CC2(CCCC(COC(=O)NCC3CCCCC3)O2)O1 (stereo partly drawn) next.
Found: 1.3

---

Please go through the items and note down their composite z-score.
Assay: small-molecule microarray binders of probe aShh, primary screen, biochemical, biotinylated probe, 635/667 nm fluorescence (AID 1114);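 further: probe is biotin-labelled aShh protein from a stem cell growth factor screen; measures binding of labelled protein to compounds printed on the slide; score merges feature fluorescence at 667 nm with signal-to-noise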
Conditions: higher = more signal
Answer as a number with no unit attached.

Lookup: Sample O=C1[C@H]2[C@H]3[C@H](O)[C@H](O)CC(=NO[C@@H]4O[C@H](CO)[C@@H](O)[C@H](O)[C@H]4O)[C@@H]3CC[C@H]2C(=O)N1Cc1ccccc1 — what was its composite z-score?
Found: 0.225

Lookup: Try CO[C@@H]1COC(=O)CC=C[C@@H](C)[C@@H]2C=C[C@H](O)[C@@H](COC(=O)CCC[C@H]1C)O2 next.
Found: 0.211

Lookup: Try CCOC(=O)C[C@H]1[C@H](OC(=O)c2ccc(C(=O)c3ccccc3)cc2)[C@@H](NC(=O)c2ccc(-c3ccccc3)cc2)c2cc(OCCCO)ccc2N1C(=O)c1ccc2ccccc2n1 next.
Found: -0.317

Lookup: Try CC(C)C[C@@H]1NC(=O)[C@H]2C[C@@H](C(=O)NCCCCCCN(C)C)[C@@H](c3cccc(OCCO)c3)N2C1=O next.
Found: 0.108

Lookup: Try CC(CCN1CCc2nc(-c3ccccc3)c(-c3ccccc3)cc2C1)=NOC[C@@H](C)[C@H](OCc1ccccc1)C(C)C next.
Found: -0.304

Lookup: Try O=C1CCCC2OC12C(O)CCc1ccccc1 (stereo unspecified) next.
Found: -0.206

---

Please go through the items and note down their composite z-score.
Molecular target: Fibroblast growth factor 10 (Homo sapiens) (UniProt O15520)
Sequence (O15520 whole entry, looked up): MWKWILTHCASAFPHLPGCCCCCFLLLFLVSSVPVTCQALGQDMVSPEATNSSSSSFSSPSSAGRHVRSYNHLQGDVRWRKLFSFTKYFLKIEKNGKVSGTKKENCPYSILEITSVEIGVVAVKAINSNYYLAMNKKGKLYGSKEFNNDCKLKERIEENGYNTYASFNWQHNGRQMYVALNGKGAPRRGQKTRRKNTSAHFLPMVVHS
Assay: FGF10 binders on small-molecule microarrays, primary screen, biochemical, small-molecule microarray, 635 nm fluorescence (AID 1102)
Conditions: FGF10 binding, fluorescence 635 nm, higher = more signal
Answer as a number with no unit attached.

Lookup: Sample COc1ccc(O[C@H]2C=C[C@@H](c3ccccc3)O[C@@H]2COC(=O)CCC(C)=NOCC[C@@H]2C=C[C@H](OC(C)=O)[C@@H](COC(C)=O)O2)cc1 — what was its composite z-score?
Found: -0.249

Lookup: Try COCC1=C2[C@@H](CCc3ccccc3)OB(O)C[C@@H]2n2c(=O)n(-c3ccccc3)c(=O)n2C1 next.
Found: 0.511

Lookup: Try Cc1cc2c(c(=O)o1)[C@H](O)[C@H]1O[C@H]1C2=O next.
Found: 0.88

Lookup: Try CC(=O)OC[C@H]1O[C@H](C#CCCCc2ccccc2)C=C[C@@H]1OC(C)=O next.
Found: 0.687

Lookup: Try CC(C)CON=C1C[C@@H](O)[C@@H](O)[C@@H]2[C@@H]3C(=O)N(C[C@@H]4CCCO4)C(=O)[C@@H]3CC[C@H]12 next.
Found: 0.505

Lookup: Try Cc1cc2c(nc1C)CCCN2CC(C)ON=C1[C@H]2CCn3c(=O)n(-c4ccccc4)c(=O)n3[C@H]2[C@H](O)[C@@H]2O[C@H]12 (stereo partly specified) next.
Found: 0.618

---

Experiment: binders of probe aFGF10 on microarray, primary screen, stem cell growth factor project, biochemical, small-molecule microarray, fluorescence 635/667 (AID 1071);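 further: score merges 667 nm spot intensity and signal to noise from triplicate slides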
Conditions: higher = more signal
Please go through the items and note down their composite z-score.
Answer as a number with no unit attached.

Lookup: Sample CCOC(=O)CCN1C(=O)[C@H]2[C@H]3[C@H](O)[C@H](O)CC(=NOC[C@@H](O)COCc4ccco4)[C@@H]3CC[C@H]2C1=O — what was its composite z-score?
Found: 0.484

Lookup: Try O=C1O[C@@H](c2ccccc2)[C@@H](c2ccccc2)N2[C@@H](c3ccc(O)cc3)[C@]3(C(=O)Nc4ccccc43)[C@@H](C(=O)O)[C@H]12 next.
Found: 0.46

Lookup: Try CCCNC(=O)OC[C@H]1O[C@H](CCON=C[C@@H](OC)[C@H](C)C=CCC(=O)OC)C=C[C@@H]1Oc1ccc(OC)cc1 next.
Found: -0.192

Lookup: Try COc1ccc([Si](C)(C)[C@H]2[C@H](CCO)O[C@@]3(C(=O)N(Cc4cccc(NC(=O)[C@H](C)O)c4)c4ccccc43)[C@@H]2C)cc1 next.
Found: 0.136

Lookup: Try CO[C@H]1O[C@H](CO)[C@@H](OC(=O)Nc2ccc3c(c2)OCO3)[C@H](OC(=O)Nc2ccccc2-c2ccccc2)[C@@H]1OC(=O)Nc1ccccc1-c1ccccc1 next.
Found: 1.13

Lookup: Try [N-]=[N+]=NCc1ccccc1C[C@]1(C(=O)NCc2ccccc2)N=C(c2ccc(OCCCO)cc2)O[C@H]1c1ccccc1N=[N+]=[N-] next.
Found: 1.13

---

Assay: osmotic lysis modulators in infected erythrocytes, primary screen, PSAC antagonist project, cell-based, P. falciparum Indochina, OD700, 3 h (AID 1156)
Conditions: higher = more signal, called active from +8 up or from −8 down
Just so you know, the groups by z-score go like this: low bracket: < -0.06; middle bracket: ≥ -0.06 and < 0.7; high bracket: ≥ 0.7

Lookup: # bin label for COc1ccc(O[C@H]2C=C[C@@H](c3ccccc3)O[C@@H]2COC(=O)CCC(C)=NOCC[C@@H]2C=C[C@H](OC(C)=O)[C@@H](COC(C)=O)O2)cc1
Found: high bracket

Lookup: Try COc1ccc(COC(=O)NN=C2C[C@@H](O)[C@@H](O)[C@@H]3[C@@H]4C(=O)N(c5ccc(F)cc5F)C(=O)[C@@H]4CC[C@@H]23)cc1 next.
Found: high bracket

Lookup: Try COc1ccc(OC[C@H]2Cc3c(-c4ccccc4)nc4c(c3CO2)CN(CCOc2ccccc2)CC4)cc1 next.
Found: middle bracket

Lookup: Try CC1CC/C=C\[C@H]2OC34C=CCN(C(C)C)C(=O)[C@H]3N(CCCO)C(=O)[C@@H]4C2C(=O)O1 (some centres undefined) next.
Found: low bracket

Lookup: Try C=CC[C@@H]1C=C[C@H](ON=C[C@@H](OC)[C@H](C)C=CCC(=O)OC)[C@@H](CO)O1 next.
Found: low bracket

Lookup: Try C[C@@H]1C=CCC(=O)OC[C@H](C)C(=O)N[C@@H](C)C(=O)OC1 next.
Found: middle bracket

Lookup: Try CC(C)c1ccc(NN2C(C(O)c3ccc4c(c3)OCO4)C=CC3C(=O)N(c4ccccc4)C(=O)C32)cc1 (centres undefined) next.
Found: middle bracket

Lookup: Try O=C1[C@H]2[C@H]3[C@H](O)[C@H](O)CC(=NOCc4ccccc4)[C@H]3CC[C@H]2C(=O)N1C[C@@H]1CCCO1 next.
Found: middle bracket

Lookup: Try CCOC(=O)C1=CCC(c2cc3ccccc3[nH]2)NC1 (centres undefined) next.
Found: high bracket

Lookup: Try CC(CCC(=O)OC[C@H]1O[C@H](C#Cc2ccccc2)C=C[C@@H]1Oc1ccc(C)cc1)=NOC[C@@H](O)COCc1ccco1 next.
Found: high bracket

Lookup: Try CCN1C(=O)[C@H]2[C@H]3[C@H](O)[C@H](O)CC(=NOCc4ccccc4)[C@H]3CC[C@H]2C1=O next.
Found: low bracket

Lookup: Try CCN1C(=O)[C@H]2[C@H]3[C@H](O)C=CC(=O)[C@@H]3CC[C@H]2C1=O next.
Found: low bracket
